# Test system: A549-ACE2
# ASSAY_SUMMARY: drug-induced phospholipidosis relative to tamoxifen; higher = more phospholipidosis
# SETTINGS: 3.33333 µM; 24 h
VALUE_KIND: drug-induced phospholipidosis (%)
Reply with just the number (in %).

INSERT INTO results (smiles_entry, assayed_target, value_kind, observed_result) VALUES
  ('Cc1csc(-c2nnc(Nc3ccc(Oc4ncccc4-c4ccnc(N)n4)cc3)c3ccccc23)c1', 'A549-ACE2', 'drug-induced phospholipidosis', 22.8),
  ('C#C[C@]1(O)CC[C@H]2[C@@H]3CCc4cc(OC5CCCC5)ccc4[C@H]3CC[C@@]21C', 'A549-ACE2', 'drug-induced phospholipidosis', 17.2),
  ('Nc1ccc(C(=O)Nc2cccc(-c3nc(N4CCOCC4)c4oc5ncccc5c4n3)c2)cn1', 'A549-ACE2', 'drug-induced phospholipidosis', 72),
  ('O=c1oc(-c2ccc(C(F)(F)F)cc2)nn1Cc1cc(Cl)ccc1O', 'A549-ACE2', 'drug-induced phospholipidosis', -2.36),
  ('Cn1c(NC[C@@H](N)Cc2ccccc2)nc(-c2ccncc2)c(-c2ccc3ccccc3c2)c1=O', 'A549-ACE2', 'drug-induced phospholipidosis', 6.77);

Short answer for O=[N+]([O-])/C=C/c1ccc2c(c1)OCO2 : drug-induced phospholipidosis was 0.27

====

# System: U2OS
# ASSAY_SUMMARY: cell viability relative to DMSO; higher = less toxic
# SETTINGS: 72 h; 10000 nM
Rule: cell viability below 90% gives Met. Equal to or above 90% gives Not met.

INSERT INTO results (compound, class_name) VALUES
  ('CC(=O)O[C@@H]1CC[C@@]2(C)[C@@H](CC[C@]3(C)[C@@H]2C(=O)C=C2[C@@H]4[C@@H](C)[C@H](C)CC[C@]4(C)CC[C@]23C)[C@@]1(C)C(=O)O', 'Not met');

Please turn your attention to the following entry.
Task: Determine whether this compound shows cell viability lower than 90% (ties excluded): Cc1nc(Nc2ncc(C(=O)Nc3c(C)cccc3Cl)s2)cc(N2CCN(CCO)CC2)n1
Result: Met

====

# Test system: HepG2
# ASSAY_SUMMARY: drug sensitivity score (DSS) for viability; higher = more toxic; extreme values may be limits of the assay
# SETTINGS: 72 h
Outcome: label 1 for drug sensitivity score of at least 0.5; label 0 for anything lower.

Study these solved cases before continuing.
INSERT INTO assay_data (compound, class_name) VALUES
  ('COc1c(C)c(C(=O)c2ccc(N)c(C(=O)O)c2)n2ccccc12', 'label 0'),
  ('COc1ccc(C(=O)Nc2c(Cl)cncc2Cl)cc1OC1CCCC1', 'label 0'),
  ('CC(C)(COP(=O)(O)OP(=O)(O)OC[C@H]1O[C@@H](n2cnc3c(N)ncnc32)[C@H](O)[C@@H]1OP(=O)(O)O)[C@@H](O)C(=O)NCCC(=O)NCCS', 'label 0'),
  ('CC12CCC(C(Br)C1=O)C2(C)C (centres undefined)', 'label 0'),
  ('Cc1nc(C#Cc2ccnc(Cl)c2)c(C)n1-c1ccc(OC(F)(F)F)cc1', 'label 0');

Task: Would you say COC(=O)c1ccc2c(c1)NC(=O)/C2=C(\Nc1ccc(N(C)C(=O)CN2CCN(C)CC2)cc1)c1ccccc1 shows drug sensitivity score at minimum 0.5?
Result: label 1

Task: Would you say CC(=O)O[C@@H]1CC[C@@]2(C)[C@@H](CC[C@]3(C)[C@@H]2C(=O)C=C2[C@@H]4[C@@H](C)[C@H](C)CC[C@]4(C)CC[C@]23C)[C@@]1(C)C(=O)O shows drug sensitivity score at minimum 0.5?
Result: label 0

Task: Would you say N=C(N)NN=C1C=CC(=NNC(N)=S)C=C1 shows drug sensitivity score at minimum 0.5?
Result: label 1
